Origin of values: patent US6319702A

# protocol: Stability and biodistribution of prodrugs in vivo (HPLC of plasma and tissues)
# Design: species or system mice (CD-1 nude; BALB/C where indicated)
# condition_parameters: mouse, plasma, 50 mg/kg, PLASMA, 30 min, 50 mg/kg i.p. or i.v., BALB/C mice; read-out: concentration of prodrug in plasma
quantity_name: concentration at 0.5 h (µM)

compound	reading
CN(Cc1cnc2nc(N)nc(N)c2n1)c1ccc(C(=O)N[C@@H](CCC(=O)O)C(=O)N[C@@H](Cc2cccc(C3CCCC3)c2)C(=O)O)cc1 [Prodrug 9]	4.9

---

# protocol: Stability and biodistribution of prodrugs in vivo (HPLC of plasma and tissues)
# Set-up: species or system mice (CD-1 nude; BALB/C where indicated)
# condition_parameters: TUMOR, 120 min, 50 mg/kg i.p. or i.v., CD-1 nude mice

molecule	concentration of prodrug in tumor [nmol/g]
Cc1nc2ccc3ccc(CNc4ccc(C(=O)N[C@@H](CCC(=O)O)C(=O)N[C@@H](Cc5ccccc5C(=O)O)C(=O)O)c(F)c4)cc3c2c(=O)[nH]1 [Prodrug 4]	1.3
CN(Cc1cnc2nc(N)nc(N)c2n1)c1ccc(C(=O)N[C@@H](CCC(=O)O)C(=O)N[C@@H](CC(=O)O)C(=O)O)cc1 [Prodrug 6]	0.8
Cc1nc2ccc3ccc(CNc4ccc(C(=O)N[C@@H](CCC(=O)O)C(=O)N[C@@H](Cc5ccccc5I)C(=O)O)c(F)c4)cc3c2c(=O)[nH]1 [Prodrug 5]	2.9
CN(Cc1cnc2nc(N)nc(N)c2n1)c1ccc(C(=O)N[C@@H](CCC(=O)O)C(=O)N[C@@H](Cc2ccccc2C(=O)O)C(=O)O)cc1 [Prodrug 7]	1.5
Cc1nc2ccc3ccc(CNc4ccc(C(=O)N[C@@H](CCC(=O)O)C(=O)N[C@@H](CCC(=O)O)C(=O)O)c(F)c4)cc3c2c(=O)[nH]1 [Prodrug 1]	1.2
CN(Cc1cnc2nc(N)nc(N)c2n1)c1ccc(C(=O)N[C@@H](CCC(=O)O)C(=O)N[C@@H](Cc2cccc(C3CCC3)c2)C(=O)O)cc1 [Prodrug 11]	2.4

---

# protocol: Stability and biodistribution of prodrugs in vivo (HPLC of plasma and tissues)
# Design: species or system mice (CD-1 nude; BALB/C where indicated)
# condition_parameters: mouse, plasma, 50 mg/kg, PLASMA, 90 min, 50 mg/kg i.p. or i.v., CD-1 nude mice; read-out: stability: percentage of material observed as intact prodrug, plasma
quantity_name: remaining at 1.5 h (%)

compound	reading
Cc1nc2ccc3ccc(CNc4ccc5c(c4)CN([C@@H](CCC(=O)O)C(=O)N[C@@H](Cc4ccccc4)C(=O)O)C5=O)cc3c2c(=O)[nH]1 [Prodrug 2]	98

---

# protocol: Stability and biodistribution of prodrugs in vivo (HPLC of plasma and tissues)
# Set-up: species or system mice (CD-1 nude; BALB/C where indicated)
# condition_parameters: mouse, large intestine, 50 mg/kg, LARGE INTESTINE, 30 min, 50 mg/kg i.p. or i.v., CD-1 nude mice; read-out: stability: percentage of material observed as intact prodrug, large intestine
Examples of molecules with documented remaining at 0.5 h follow.
quantity_name: remaining at 0.5 h (%)

molecule	quantity_name	reading
CN(Cc1cnc2nc(N)nc(N)c2n1)c1ccc(C(=O)N[C@@H](CCC(=O)O)C(=O)N[C@@H](CC(=O)O)C(=O)O)cc1 [Prodrug 6]	remaining at 0.5 h	100
CN(Cc1cnc2nc(N)nc(N)c2n1)c1ccc(C(=O)N[C@@H](CCC(=O)O)C(=O)N[C@@H](Cc2ccccc2C(=O)O)C(=O)O)cc1 [Prodrug 7]	remaining at 0.5 h	100
Cc1nc2ccc3ccc(CNc4ccc(C(=O)N[C@@H](CCC(=O)O)C(=O)N[C@@H](Cc5ccccc5C(=O)O)C(=O)O)c(F)c4)cc3c2c(=O)[nH]1 [Prodrug 4]	remaining at 0.5 h	100
Cc1nc2ccc3ccc(CNc4ccc5c(c4)CN([C@@H](CCC(=O)O)C(=O)N[C@@H](Cc4ccccc4)C(=O)O)C5=O)cc3c2c(=O)[nH]1 [Prodrug 2]	remaining at 0.5 h	93

---

# protocol: Stability and biodistribution of prodrugs in vivo (HPLC of plasma and tissues)
# Design: species or system mice (CD-1 nude; BALB/C where indicated)
# condition_parameters: TUMOR, 30 min, 50 mg/kg i.p. or i.v., CD-1 nude mice
Rule: concentration of prodrug in tumor under 7 nmol/g gives not met, otherwise met.

molecule	label_class
CN(Cc1cnc2nc(N)nc(N)c2n1)c1ccc(C(=O)N[C@@H](CCC(=O)O)C(=O)N[C@@H](CC(=O)O)C(=O)O)cc1 [Prodrug 6]	met
Cc1nc2ccc3ccc(CNc4ccc(C(=O)N[C@@H](CCC(=O)O)C(=O)N[C@@H](Cc5ccccc5C(=O)O)C(=O)O)c(F)c4)cc3c2c(=O)[nH]1 [Prodrug 4]	not met
Cc1nc2ccc3ccc(CNc4ccc(C(=O)N[C@@H](CCC(=O)O)C(=O)N[C@@H](Cc5ccccc5I)C(=O)O)c(F)c4)cc3c2c(=O)[nH]1 [Prodrug 5]	not met
CN(Cc1cnc2nc(N)nc(N)c2n1)c1ccc(C(=O)N[C@@H](CCC(=O)O)C(=O)N[C@@H](Cc2cccc(C(C)(C)C)c2)C(=O)O)cc1 [Prodrug 12]	not met
Cc1nc2ccc3ccc(CNc4ccc(C(=O)N[C@@H](CCC(=O)O)C(=O)N[C@@H](CCC(=O)O)C(=O)O)c(F)c4)cc3c2c(=O)[nH]1 [Prodrug 1]	not met

---

# protocol: Stability and biodistribution of prodrugs in vivo (HPLC of plasma and tissues)
# Set-up: species or system mice (CD-1 nude; BALB/C where indicated)
# condition_parameters: LIVER, 120 min, 50 mg/kg i.p. or i.v., CD-1 nude mice
Rule: concentration of prodrug in liver under 40 nmol/g gives not fulfilled, otherwise fulfilled.

compound	label_class
Cc1nc2ccc3ccc(CNc4ccc(C(=O)N[C@@H](CCC(=O)O)C(=O)N[C@@H](Cc5ccccc5C(=O)O)C(=O)O)c(F)c4)cc3c2c(=O)[nH]1 [Prodrug 4]	not fulfilled
CN(Cc1cnc2nc(N)nc(N)c2n1)c1ccc(C(=O)N[C@@H](CCC(=O)O)C(=O)N[C@@H](Cc2ccccc2)C(=O)O)cc1 [Prodrug 10, reference compound]	not fulfilled
Cc1nc2ccc3ccc(CNc4ccc(C(=O)N[C@@H](CCC(=O)O)C(=O)N[C@@H](Cc5ccccc5I)C(=O)O)c(F)c4)cc3c2c(=O)[nH]1 [Prodrug 5]	not fulfilled
Cc1nc2ccc3ccc(CNc4ccc(C(=O)N[C@@H](CCC(=O)O)C(=O)N[C@@H](CCC(=O)O)C(=O)O)c(F)c4)cc3c2c(=O)[nH]1 [Prodrug 1]	fulfilled
CN(Cc1cnc2nc(N)nc(N)c2n1)c1ccc(C(=O)N[C@@H](CCC(=O)O)C(=O)N[C@@H](CC(=O)O)C(=O)O)cc1 [Prodrug 6]	fulfilled
CN(Cc1cnc2nc(N)nc(N)c2n1)c1ccc(C(=O)N[C@@H](CCC(=O)O)C(=O)N[C@@H](Cc2ccccc2C2CCCC2)C(=O)O)cc1 [Prodrug 8]	fulfilled
CN(Cc1cnc2nc(N)nc(N)c2n1)c1ccc(C(=O)N[C@@H](CCC(=O)O)C(=O)N[C@@H](Cc2ccccc2C(=O)O)C(=O)O)cc1 [Prodrug 7]	not fulfilled
Nc1nc(N)c(CCCNc2ccc(C(=O)N[C@@H](CCC(=O)O)C(=O)N[C@@H](Cc3cccc(C4CCCC4)c3)C(=O)O)cc2)c(=O)[nH]1 [Prodrug 14]	fulfilled
CN(Cc1cnc2nc(N)nc(N)c2n1)c1ccc(C(=O)N[C@@H](CCC(=O)O)C(=O)N[C@@H](Cc2cccc(C3CCCC3)c2)C(=O)O)cc1 [Prodrug 9]	fulfilled
CN(Cc1cnc2nc(N)nc(N)c2n1)c1ccc(C(=O)N[C@@H](CCC(=O)O)C(=O)N[C@@H](Cc2ccc(O)c(C3CCCC3)c2)C(=O)O)cc1 [Prodrug 13]	fulfilled
CN(Cc1cnc2nc(N)nc(N)c2n1)c1ccc(C(=O)N[C@@H](CCC(=O)O)C(=O)N[C@@H](Cc2cccc(C3CCC3)c2)C(=O)O)cc1 [Prodrug 11]	fulfilled

---

# protocol: Stability and biodistribution of prodrugs in vivo (HPLC of plasma and tissues)
# Parameters: species or system mice (CD-1 nude; BALB/C where indicated)
# condition_parameters: SMALL INTESTINE, 120 min, 50 mg/kg i.p. or i.v., CD-1 nude mice
Rule: concentration of prodrug in small intestine under 30 nmol/g gives criterion not met, otherwise criterion met.

compound	label_class
CN(Cc1cnc2nc(N)nc(N)c2n1)c1ccc(C(=O)N[C@@H](CCC(=O)O)C(=O)N[C@@H](Cc2cccc(C3CCCC3)c2)C(=O)O)cc1 [Prodrug 9]	criterion met
CN(Cc1cnc2nc(N)nc(N)c2n1)c1ccc(C(=O)N[C@@H](CCC(=O)O)C(=O)N[C@@H](Cc2ccc(O)c(C3CCCC3)c2)C(=O)O)cc1 [Prodrug 13]	criterion met
CN(Cc1cnc2nc(N)nc(N)c2n1)c1ccc(C(=O)N[C@@H](CCC(=O)O)C(=O)N[C@@H](Cc2ccccc2C2CCCC2)C(=O)O)cc1 [Prodrug 8]	criterion met
Cc1nc2ccc3ccc(CNc4ccc(C(=O)N[C@@H](CCC(=O)O)C(=O)N[C@@H](Cc5ccccc5C(=O)O)C(=O)O)c(F)c4)cc3c2c(=O)[nH]1 [Prodrug 4]	criterion met
Cc1nc2ccc3ccc(CNc4ccc(C(=O)N[C@@H](CCC(=O)O)C(=O)N[C@@H](Cc5ccccc5I)C(=O)O)c(F)c4)cc3c2c(=O)[nH]1 [Prodrug 5]	criterion not met
Cc1nc2ccc3ccc(CNc4ccc(C(=O)N[C@@H](CCC(=O)O)C(=O)N[C@@H](Cc5cccc6ccccc56)C(=O)O)c(F)c4)cc3c2c(=O)[nH]1 [Prodrug 3]	criterion not met
Nc1nc(N)c(CCCNc2ccc(C(=O)N[C@@H](CCC(=O)O)C(=O)N[C@@H](Cc3cccc(C4CCCC4)c3)C(=O)O)cc2)c(=O)[nH]1 [Prodrug 14]	criterion met
